I'd appreciate it if you could supply log10 of binding signal values for the items below.
Biological target: SALL4 ZFC4 G921D (HT-SELEX) (Mus musculus, UniProt Q8BX22 870-940, G921D)
Sequence: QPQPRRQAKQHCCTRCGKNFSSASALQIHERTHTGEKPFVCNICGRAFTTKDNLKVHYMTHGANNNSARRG
Assay: HT-SELEX; high values mean tight binding
Settings: protein: recombinant; vector His6-GST; dsDNA, one strand shown
// do not treat as linear: log10 of binding signal, unit fold-change vs cycle 0

> print(dat)
    polymer.sequence       measured.attribute  quantitative.readout
 1            GCGCGA  log10 of binding signal                 -0.82
 2            ACATGA  log10 of binding signal                  0.15
 3            AGGAAC  log10 of binding signal                  0.02
 4            CCCTGA  log10 of binding signal                 -0.18
 5            CAACAG  log10 of binding signal                 -0.06
 6            AAAGGG  log10 of binding signal                 -0.06
 7            ATCACG  log10 of binding signal                 -0.03
 8            CCGCAG  log10 of binding signal                 -0.63
 9            CTCTAC  log10 of binding signal                 -0.02
10            AACTAT  log10 of binding signal                  0.25

Please supply log10 of binding signal for each of the following items, keeping them in order.
1. AGACTG
2. CGTACA

-- reply
1: -0.04; 2: -0.10

Please supply log10 of binding signal for each of the following items, keeping them in order.
1. AGAATG
2. AGTATA
3. ACGGCT
4. AAAGAC
5. ACTACA
6. GCGGGA

-- reply
[0.13, 0.27, -0.40, 0.10, 0.13, -0.59]

Please supply log10 of binding signal for each of the following items, keeping them in order.
1. CATTCG
2. GTAGTA
3. CAAGAG
4. CGTGTC
5. CAGTAC
6. AGACTA

-- reply
[-0.07, 0.12, 0.00, -0.26, -0.02, 0.15]
